Provide the recorded melting point for the entries that follow.
Structures can show the parent of a compound that is named as a salt.

Worked examples, 4 molecules total:
- molecule: "N[C@@H]1CCS(=O)(=O)c2cc(C(=O)Nc3ccncc3)ccc21 (as salt: HCl) (hydrate or solvate) [Example 7]"
  assay.result: "> 250 °C (dec.)"
- molecule: "N[C@H]1CCSc2cc(C(=O)Nc3ccncc3)ccc21 (as salt: HCl) (hydrate or solvate) [Example 10]"
  assay.result: "> 260 °C (dec.)"
- molecule: "NC1CCS(=O)(=O)c2cc(C(=O)Nc3ccncc3)ccc21 (centres unmarked) (as salt: HCl) (hydrate or solvate) [Example 1]"
  assay.result: "> 230 °C (dec.)"
- molecule: "N[C@@H]1CCS(=O)(=O)c2cc(C(=O)Nc3ccncc3)ccc21 (as salt: HCl) (hydrate or solvate) [Example 6]"
  assay.result: "> 275 °C (dec.)"

From here, focus on the item given below.
# melting point (molecule: NC1CCSc2cc(C(=O)Nc3ccncc3)ccc21 (centres unmarked) (as salt: HCl) [Example 2] ) is > 280 °C (dec.)
